# % change of MS signal compared to control sample values compiled below
Test system: AurA, AurB, AurC
Experiment: KINATIV assay
Assay type: cell-based
Settings: 1 μM, 90 minutes, BCWM.1 cells
Report the value in % with no unit label.

COMPOUND	READOUT_NUMBER
C=CC(=O)N1CC[C@@H](Nc2nccc(Nc3ncc(C(=O)Nc4c(C)cccc4C)s3)n2)C1	2.3
C=CC(=O)N1CCCCC(Nc2nccc(Nc3ncc(C(=O)Nc4c(C)cccc4C)s3)n2)C1 (stereo not shown)	0.4
C=CC(=O)N1CCC(CNc2nccc(Nc3ncc(C(=O)Nc4c(C)cccc4C)s3)n2)C1 (racemic)	−2.9

Now turn to the next compound.
// assay AurA, AurB, AurC, entry C=CC(=O)N1CCC(Cn2ccc(Nc3ncc(C(=O)Nc4c(C)cccc4Cl)s3)n2)C1 (stereo not shown) , % change of MS signal compared to control sample value = −3.6
